As shown below, each of these molecules has a reported IC50 value.
- Test system: CAIX-expressing human HT-29 colorectal cancer cells (Homo sapiens)
- Construct: CAIX-expressing human HT-29 colorectal cancer cells; host or cells: HT-29 human colorectal cancer cells
- Measurement protocol: FACS binding assay (IC50 determination, competition with tracer 3BP-2776 or 3BP-4149)
- Test parameters: FACS binding assay, HT-29 cells, competition with tracer 3BP-2776 (10 nM, biotin-labeled), 4° C., 1 hour; read-out: pIC50 category (activity) (converted)
Starred links: 1 amine or outer side, 2 acyl side, 3 side chain; linkers in the order of their positions; H or OH if unused. Positions of bridges follow the written chain, without caps; N, C: chain ends. Non-standard residues stand in square brackets, D forms with d. Residues, ends and D or L forms follow the SMILES beside them. *: point of attachment. DOTA = O=C(O)CN1CCN(CC(=O)O)CCN(CC(=O)*)CCN(CC(=O)O)CC1; mXylylene = c1cc(C[*:1])cc(C[*:2])c1; 3Amb = NCc1cccc(C(=O)O)c1; 4Amb = NCc1ccc(C(=O)O)cc1; Thp = NC1(C(=O)O)CCOCC1; Dap = NC[C@H](N)C(=O)O

CC(C)C[C@@H]1NC(=O)[C@H](Cc2cccc(NC(=O)Cn3cc(S(N)(=O)=O)cn3)c2)NC(=O)[C@H](CC(=O)O)NC(=O)[C@H]2CCCN2C(=O)[C@H](CCC(=O)O)NC(=O)[C@@H](NC(=O)[C@H](CCC(N)=O)NC(=O)CN2CCN(C(=O)CN3CCN(CC(=O)O)CCN(CC(=O)O)CCN(CC(=O)O)CC3)CC2)CSCc2cccc(c2)CSC[C@@H](C(N)=O)NC(=O)[C@H](CO)NC(=O)[C@H](Cc2c[nH]c3ccccc23)NC(=O)[C@H]([C@@H](C)O)NC1=O : < 10 nM
CC(C)C[C@@H]1NC(=O)[C@H](Cc2c[nH]c3ccccc23)NC(=O)[C@H](CC(=O)O)NC(=O)[C@H]2CCCN2C(=O)[C@H](CCC(=O)O)NC(=O)[C@@H]2CSCc3cccc(c3)CSC[C@@H](C(N)=O)NC(=O)[C@H](CNC(=O)C[C@H](NC(=O)c3ccc(CNC(=O)CN4CCN(CC(=O)O)CCN(CC(=O)O)CCN(CC(=O)O)CC4)cc3)C(=O)N2)NC(=O)[C@H](Cc2c[nH]c3ccccc23)NC(=O)[C@H]([C@@H](C)O)NC1=O [3BP-4261] ({DOTA-4Amb}-DCE[dP]DWLTW[Dap]C-NH2; lactam 1-10; linker 2-11 via mXylylene) : < 10 nM
CC(C)C[C@@H]1NC(=O)[C@H](Cc2c[nH]c3ccccc23)NC(=O)[C@H](CC(=O)O)NC(=O)[C@H]2CCCN2C(=O)[C@H](CCC(=O)O)NC(=O)[C@@H]2CSCc3cccc(c3)CSC[C@@H](C(N)=O)NC(=O)[C@H](CNC(=O)C[C@H](NC(=O)c3cccc(CNC(=O)CN4CCN(CC(=O)O)CCN(CC(=O)O)CCN(CC(=O)O)CC4)c3)C(=O)N2)NC(=O)[C@H](Cc2c[nH]c3ccccc23)NC(=O)[C@H]([C@@H](C)O)NC1=O [3BP-4260] ({DOTA-3Amb}-DCE[dP]DWLTW[Dap]C-NH2; lactam 1-10; linker 2-11 via mXylylene) : < 10 nM
CC(C)C[C@@H]1NC(=O)[C@H](Cc2c[nH]c3ccccc23)NC(=O)[C@H](CC(=O)O)NC(=O)[C@H]2CCCN2C(=O)[C@H](CCC(=O)O)NC(=O)[C@@H]2CSCc3cccc(c3)CSC[C@@H](C(N)=O)NC(=O)[C@H](CNC(=O)C[C@H](NC(=O)CN3CCN(CC(=O)O)CCN(CC(=O)O)CCN(CC(=O)O)CC3)C(=O)N2)NC(=O)[C@H](Cc2c[nH]c3ccccc23)NC(=O)[C@H]([C@@H](C)O)NC1=O [3BP-4253] ({DOTA}-DCE[dP]DWLTW[Dap]C-NH2; lactam 1-10; linker 2-11 via mXylylene) : < 10 nM

Exam item: Field request: IC50 | item: CC(=O)N[C@H](C(=O)N[C@@H](Cc1ccc(O)cc1)C(=O)N[C@H]1CSCc2cccc(c2)CSC[C@@H](C(N)=O)NC(=O)[C@H](CO)NC(=O)[C@H](Cc2c[nH]c3ccccc23)NC(=O)[C@@H]2CCC(=O)NCCCC[C@H](NC(=O)[C@H]3CCCN3C(=O)[C@H](CCC(=O)O)NC1=O)C(=O)N[C@@H](Cc1c[nH]c3ccccc13)C(=O)NC1(CCOCC1)C(=O)N2)C(C)C [3BP-3962] (Ac-VYCE[dP]KW[Thp]EWSC-NH2; linker 3-12 via mXylylene; lactam 6-9)
Marked response: 100 to 794 nM
